src = patent US20150140169

Parameter: αs1 CN, 6 hours, 11° C.. Scope: all listed entries.
Test System: T1, alpha-s1 casein from Bos taurus
T1 chain: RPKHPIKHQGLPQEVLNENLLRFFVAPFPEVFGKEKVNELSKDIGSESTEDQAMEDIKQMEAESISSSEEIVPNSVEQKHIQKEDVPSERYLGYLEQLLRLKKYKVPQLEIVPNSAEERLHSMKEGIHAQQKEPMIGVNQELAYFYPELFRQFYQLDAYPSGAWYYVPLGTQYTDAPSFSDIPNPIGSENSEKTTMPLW
# value in Volume; strip the unit string

See these solved cases before continuing.
# query: αs1 CN, 6 hours, 11° C. of entry Maxiren (recombinant wild-type calf chymosin B) (protein) GEVASVPLTNYLDSQYFGKIYLGTPPQEFTVLFDTGSSDFWVPSIYCKSNACKNHQRFDPRKSSTFQNLGKPLSIHYGTGSMQGILGYDTVTVSNIVDIQQTVGLSTQEPGDVFTYAEFDGILGMAYPSLASEYSIPVFDNMMNRHLVAQDLFSVYMDRNGQESMLTLGAIDPSYYTGSLHWVPVTVQQYWQFTVDSVTISGVVVACEGGCQAILDTGTSKLVGPSSDILNIQQAIGATQNQYGEFDIDCDNLSYMPTVVFEINGKMYPLTPSAYTSQDQGFCTSGFQSENHSQKWILGDVFIREYYSVFDRANNLVGLAKAI
1.14e+07

# αs1 CN, 6 hours, 11° C. lookup, item camel chymosin variant #157 (D290T) (protein) GKVAREPLTSYLDSQYFGKIYIGTPPQEFTVVFDTGSSDLWVPSIYCKSNVCKNHHRFDPRKSSTFRNLGKPLSIHYGTGSMEGFLGYDTVTVSNIVDPNQTVGLSTEQPGEVFTYSEFDGILGLAYPSLASEYSVPVFDNMMDRHLVARDLFSVYMDRNGQGSMLTLGAIDPSYYTGSLHWVPVTLQQYWQFTVDSVTINGVAVACVGGCQAILDTGTSVLFGPSSDILKIQMAIGATENRYGEFDVNCGNLRSMPTVVFEINGRDYPLSPSAYTSKDQGFCTSGFQGTNNSELWILGDVFIREYYSVFDRANNRVGLAKAI
3.07e+07

Can you look up the measured αs1 CN, 6 hours, 11° C. of camel chymosin variant #161 (L295M) (protein) GKVAREPLTSYLDSQYFGKIYIGTPPQEFTVVFDTGSSDLWVPSIYCKSNVCKNHHRFDPRKSSTFRNLGKPLSIHYGTGSMEGFLGYDTVTVSNIVDPNQTVGLSTEQPGEVFTYSEFDGILGLAYPSLASEYSVPVFDNMMDRHLVARDLFSVYMDRNGQGSMLTLGAIDPSYYTGSLHWVPVTLQQYWQFTVDSVTINGVAVACVGGCQAILDTGTSVLFGPSSDILKIQMAIGATENRYGEFDVNCGNLRSMPTVVFEINGRDYPLSPSAYTSKDQGFCTSGFQGDNNSEMWILGDVFIREYYSVFDRANNRVGLAKAI for me?
3.15e+07

Kindly consider the entry below.
# lookup: αs1 CN, 6 hours, 11° C. of camel chymosin variant #167 (I297V) (protein) GKVAREPLTSYLDSQYFGKIYIGTPPQEFTVVFDTGSSDLWVPSIYCKSNVCKNHHRFDPRKSSTFRNLGKPLSIHYGTGSMEGFLGYDTVTVSNIVDPNQTVGLSTEQPGEVFTYSEFDGILGLAYPSLASEYSVPVFDNMMDRHLVARDLFSVYMDRNGQGSMLTLGAIDPSYYTGSLHWVPVTLQQYWQFTVDSVTINGVAVACVGGCQAILDTGTSVLFGPSSDILKIQMAIGATENRYGEFDVNCGNLRSMPTVVFEINGRDYPLSPSAYTSKDQGFCTSGFQGDNNSELWVLGDVFIREYYSVFDRANNRVGLAKAI
2.73e+07
